Assay Summary: Pharmacokinetics in rat plasma after intragastric administration, hypoxia (9.0% O2)
Type: in vivo, Sprague-Dawley rats
Condition Description: male, Sprague-Dawley, po, PF 80 mg/kg single intragastric, mean ± SD, n = 6
Measured Property: Tmax

[in] So what's the measured Tmax for this one? C[C@@]12C[C@@]3(O)O[C@@H](O1)[C@]1(COC(=O)c4ccccc4)[C@H]3C[C@@]12O[C@@H]1O[C@H](CO)[C@@H](O)[C@H](O)[C@H]1O
[out] 50.8 min

----------
Assay Summary: Pharmacokinetics in rat plasma after intragastric administration, normoxia (UPLC-MS/MS)
Type: in vivo, Sprague-Dawley rats
Condition Description: male, Sprague-Dawley, rat, plasma, po, 80 mg/kg, PF alone, 80 mg/kg intragastric, normoxia, mean ± SD, n = 6
Measured Property: Cmax (ng/mL)
Supply the numeric figure in ng/mL, leaving out any unit text.

[in] So what's the measured Cmax for this one? C[C@@]12C[C@@]3(O)O[C@@H](O1)[C@]1(COC(=O)c4ccccc4)[C@H]3C[C@@]12O[C@@H]1O[C@H](CO)[C@@H](O)[C@H](O)[C@H]1O
[out] 333
